- ASSAYED_SYSTEM: Aβ1–42 (Homo sapiens, UniProt P05067)
- Construct: purchased Merck
- Sequence (P05067 672-713): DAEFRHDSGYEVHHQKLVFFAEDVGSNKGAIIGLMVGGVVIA
- METHOD_NOTES: Aβ1–42 self-aggregation, thioflavin T-based fluorometric assay
- Format: biochemical
- REPORTED_CONDITIONS: ThT assay; [Aβ] = [Inhibitor] = 50 μM (Figure 1 legend)
Exercise: state measured inhibition at 50 µM (stock) for each of the compounds provided.
Give just the number in %; leave the unit off.

Prompt: Fill blank: measured inhibition at 50 µM (stock) of the compound `CCc1nc(Nc2ccc(Cl)cc2)c2ccccc2n1` is ____.
Response: 1.45

Prompt: Fill blank: measured inhibition at 50 µM (stock) of the compound `Cc1nc(Nc2ccc([N+](=O)[O-])cc2)c2ccccc2n1` is ____.
Response: 13.7

Prompt: Fill blank: measured inhibition at 50 µM (stock) of the compound `Cc1ccc(Nc2nc(C)nc3ccccc23)cc1` is ____.
Response: 21.2

Prompt: Fill blank: measured inhibition at 50 µM (stock) of the compound `Cc1cccc(Nc2ncnc3ccccc23)c1C` is ____.
Response: 8.74

Prompt: Fill blank: measured inhibition at 50 µM (stock) of the compound COc1cc(/C=C/C(=O)CC(=O)/C=C/c2ccc(O)c(OC)c2)ccc1O [Curcumin, reference compound] is ____.
Response: 58

Prompt: Fill blank: measured inhibition at 50 µM (stock) of the compound `CCc1nc(Nc2ccc(OC)c(OC)c2)c2ccccc2n1` is ____.
Response: 36.7

Prompt: Fill blank: measured inhibition at 50 µM (stock) of the compound `CCc1nc(Nc2ccc(C)cc2)c2ccccc2n1` is ____.
Response: 9.4

Prompt: Fill blank: measured inhibition at 50 µM (stock) of the compound `COc1ccc(Nc2ncnc3ccccc23)cc1OC` is ____.
Response: 14.7

Prompt: Fill blank: measured inhibition at 50 µM (stock) of the compound `Cc1ccc(Nc2ncnc3ccccc23)cc1` is ____.
Response: 7.1

Prompt: Fill blank: measured inhibition at 50 µM (stock) of the compound `CCc1nc(Nc2cc(OC)cc(OC)c2)c2ccccc2n1` is ____.
Response: 13.6

Prompt: Fill blank: measured inhibition at 50 µM (stock) of the compound `Cc1nc(Nc2cccc(C)c2C)c2ccccc2n1` is ____.
Response: 15.8

Prompt: Fill blank: measured inhibition at 50 µM (stock) of the compound `c1ccc(Nc2ncnc3ccccc23)cc1` is ____.
Response: 10.3

Prompt: Fill blank: measured inhibition at 50 µM (stock) of the compound `O=[N+]([O-])c1ccc(Nc2ncnc3ccccc23)cc1` is ____.
Response: 6.57

* * *

- ASSAYED_SYSTEM: Electrophorus electricus AChE (EeAChE) (Electrophorus electricus, UniProt O42275)
- Sequence (O42275 24-633): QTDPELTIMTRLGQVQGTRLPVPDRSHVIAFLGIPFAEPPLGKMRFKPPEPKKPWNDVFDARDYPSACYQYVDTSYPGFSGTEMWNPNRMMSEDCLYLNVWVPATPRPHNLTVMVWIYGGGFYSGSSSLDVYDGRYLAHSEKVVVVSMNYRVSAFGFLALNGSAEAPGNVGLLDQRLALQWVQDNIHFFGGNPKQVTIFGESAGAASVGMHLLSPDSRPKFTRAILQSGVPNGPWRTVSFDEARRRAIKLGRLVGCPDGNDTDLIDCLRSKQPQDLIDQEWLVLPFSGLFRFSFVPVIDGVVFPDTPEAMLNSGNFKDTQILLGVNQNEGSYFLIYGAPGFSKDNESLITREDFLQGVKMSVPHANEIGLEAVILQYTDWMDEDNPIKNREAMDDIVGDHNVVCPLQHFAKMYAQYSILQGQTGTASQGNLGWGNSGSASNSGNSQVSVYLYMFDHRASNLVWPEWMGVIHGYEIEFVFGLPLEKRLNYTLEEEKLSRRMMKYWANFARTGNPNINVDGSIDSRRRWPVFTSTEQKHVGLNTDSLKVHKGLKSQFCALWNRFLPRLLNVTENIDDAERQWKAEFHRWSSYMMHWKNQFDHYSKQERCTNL
MEASURED_ATTRIBUTE: IC50 (µM)
Give just the number in µM; leave the unit off.

Prompt: Fill blank: measured IC50 of the molecule COc1cc(Nc2nc(C)nc3ccccc23)cc(OC)c1 [3e] is ____.
Response: 6.04

* * *

Exercise: state measured IC50 for each of the compounds provided.
- ASSAYED_SYSTEM: equine BuChE (eqBuChE) (Equus caballus)
- Sequence (P81908 whole entry): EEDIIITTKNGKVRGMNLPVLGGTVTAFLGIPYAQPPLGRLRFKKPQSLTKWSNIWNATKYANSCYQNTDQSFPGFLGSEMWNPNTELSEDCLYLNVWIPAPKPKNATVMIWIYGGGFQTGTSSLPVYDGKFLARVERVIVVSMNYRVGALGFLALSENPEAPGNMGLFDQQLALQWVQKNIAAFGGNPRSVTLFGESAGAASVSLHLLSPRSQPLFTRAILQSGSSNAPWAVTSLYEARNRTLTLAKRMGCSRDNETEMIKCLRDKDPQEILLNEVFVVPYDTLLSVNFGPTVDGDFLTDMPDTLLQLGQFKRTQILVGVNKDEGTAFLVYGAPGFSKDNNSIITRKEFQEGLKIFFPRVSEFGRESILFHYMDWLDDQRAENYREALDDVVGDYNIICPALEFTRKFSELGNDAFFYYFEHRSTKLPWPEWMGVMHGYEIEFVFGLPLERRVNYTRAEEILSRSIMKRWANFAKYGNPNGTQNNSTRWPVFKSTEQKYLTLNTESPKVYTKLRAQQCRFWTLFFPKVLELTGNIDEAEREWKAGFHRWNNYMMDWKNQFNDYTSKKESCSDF
A bare number is not enough; add the unit after it.

Prompt: Fill blank: measured IC50 of the compound `CCc1nc(Nc2ccc(Cl)cc2)c2ccccc2n1` is ____.
Response: 8.64 µM

Prompt: Fill blank: measured IC50 of the compound `CCc1nc(Nc2cc(OC)cc(OC)c2)c2ccccc2n1` is ____.
Response: 8.5 µM

Prompt: Fill blank: measured IC50 of the compound `CCc1nc(Nc2ccccc2)c2ccccc2n1` is ____.
Response: 5.34 µM

Prompt: Fill blank: measured IC50 of the compound `COc1cc(Nc2nc(C)nc3ccccc23)cc(OC)c1` is ____.
Response: 9.43 µM
